System: corn (Zea mays)
Protocol summary: Test B pre-/postemergence plant response
Assay type: in vivo
Experimental conditions: Postemergence, 31 g ai/ha; scale 0 to 100 (0 no effect, 100 complete control)
Property: Plant response rating, Corn
The reply should be a number, written without any unit.

Example results:
{"Molecular string": "Cc1cc(F)ccc1-n1c(-c2ccccc2)ncc(C(=O)C2=C(O)CCCC2=O)c1=O", "Experimental system": "corn (Zea mays)", "Property": "Plant response rating, Corn", "Observed measurement": 65}
{"Molecular string": "Cc1cccc(-n2c(-c3cccc(Cl)c3)ncc(C(=O)C3=C(O)CCCC3=O)c2=O)c1", "Experimental system": "corn (Zea mays)", "Property": "Plant response rating, Corn", "Observed measurement": 10}
{"Molecular string": "O=C1CCCC(O)=C1C(=O)c1cnc(-c2ccccc2)n(-c2ccccc2Br)c1=O", "Experimental system": "corn (Zea mays)", "Property": "Plant response rating, Corn", "Observed measurement": 0}

Any idea what Plant response rating, Corn was measured for O=C1CCCC([O-])=C1C(=O)c1cnc(-c2ccccc2)n(-c2ccccc2)c1=O.[K+] ? 10

---

System: ducksalad (Heteranthera limosa)
Protocol summary: Test B flooded paddy test
Assay type: in vivo
Experimental conditions: 250 g ai/ha; flooded paddy test; visual rating on 0 to 100 scale (0 no effect, 100 complete control) after 13 to 15 days
Classification scheme (Plant response rating, Flood, Ducksalad): low interval (below 80), middle interval (80 to below 90), high interval (90 or more)

Reference set, count: 10
{"Molecular string": "CCCCn1c(CCC)ncc(C(=O)C2=C(O)CCCC2=O)c1=O", "Class label": "low interval"}
{"Molecular string": "O=C1CCCC(O)=C1C(=O)c1cnc(-c2ccccc2)n(-c2ccc(F)cc2)c1=O", "Class label": "low interval"}
{"Molecular string": "Cc1cccc(-n2c(-c3ccccc3)ncc(C(=O)C3=C(O)CCCC3=O)c2=O)c1C", "Class label": "middle interval"}
{"Molecular string": "Cc1ccc(F)cc1-n1c(-c2cc(F)cc(F)c2)ncc(C(=O)C2=C(O)CCCC2=O)c1=O", "Class label": "high interval"}
{"Molecular string": "Cc1ccc(-n2c(-c3ccccc3)ncc(C(=O)C3=C(O)CCCC3=O)c2=O)cc1C", "Class label": "high interval"}
{"Molecular string": "Cc1ccc(-n2c(-c3ccccc3)ncc(C(=O)C3=C(O)CCCC3=O)c2=O)c(Cl)c1", "Class label": "low interval"}
{"Molecular string": "Cc1cc(-n2c(-c3cccc(Br)c3)ncc(C(=O)C3=C(O)CCCC3=O)c2=O)ccc1F", "Class label": "high interval"}
{"Molecular string": "CCCn1c(-c2ccccc2F)ncc(C(=O)C2=C(O)CCCC2=O)c1=O", "Class label": "low interval"}
{"Molecular string": "CCc1ccc(-n2c(-c3cccc(F)c3)ncc(C(=O)C3=C(O)CCCC3=O)c2=O)cc1", "Class label": "high interval"}
{"Molecular string": "Cc1ccc(Cl)cc1-n1c(-c2ccccc2)ncc(C(=O)C2=C(O)CCCC2=O)c1=O", "Class label": "low interval"}

Which Plant response rating, Flood, Ducksalad band matches CC(C)c1ncc(C(=O)C2=C(O)CCCC2=O)c(=O)n1-c1ccccc1 ? low interval

Which Plant response rating, Flood, Ducksalad band matches O=C1CCCC(O)=C1C(=O)c1cnc(C2CCCC2)n(-c2ccccc2)c1=O ? middle interval

---

Test system: velvetleaf (Abutilon theophrasti)
Protocol summary: Test A pre-/postemergence plant response
Format: in vivo
Experimental conditions: Abutilon theophrasti, pre-emergence, 240 h; Preemergence, 500 g ai/ha; visual injury, 0 to 100 scale (0 no effect, 100 complete control), approx. ten days; read-out: Plant response rating, Velvetleaf
Property: pest or weed control at 500 g/ha (%)
Give the number; % is assumed, so skip it.

{"Molecular string": "O=C1CCCC(O)=C1C(=O)c1cnc(-c2cccnc2)n(-c2ccccc2)c1=O", "Property": "pest or weed control at 500 g/ha", "Observed measurement": 100}
{"Molecular string": "CCn1ncc(C(=O)c2cnc(-c3ccccc3)n(Cc3ccccc3)c2=O)c1O", "Property": "pest or weed control at 500 g/ha", "Observed measurement": 50}

Any idea what pest or weed control at 500 g/ha was measured for COCCn1c(-c2ccsc2)ncc(C(=O)C2=C(O)CCCC2=O)c1=O ? 100

Any idea what pest or weed control at 500 g/ha was measured for CCn1ncc(C(=O)c2cnc(-c3ccccc3)n(Cc3ccccc3)c2=O)c1OS(=O)(=O)c1ccc(C)cc1 ? 0

---

Test system: giant foxtail (Setaria faberii)
Protocol summary: Test B pre-/postemergence plant response
Type: in vivo
Experimental conditions: Preemergence, 62 g ai/ha; scale 0 to 100, 0 no effect, 100 complete control
Property: Plant response rating, Foxtail, Giant
The reply should be a number, written without any unit.

{"Compound": "O=C1CCCC(O)=C1C(=O)c1cnc(-c2cccc(Br)c2)n(-c2ccccc2)c1=O [Compound 69]", "Plant response rating, Foxtail, Giant": 75}
{"Compound": "Cc1cccc(-n2c(-c3ccccc3)ncc(C(=O)C3=C(O)CCCC3=O)c2=O)c1F [Compound 58]", "Plant response rating, Foxtail, Giant": 20}
{"Compound": "Cc1ccc(Cl)cc1-n1c(-c2ccccc2)ncc(C(=O)C2=C(O)CCCC2=O)c1=O [Compound 52]", "Plant response rating, Foxtail, Giant": 15}
{"Compound": "CCCCn1c(CCC)ncc(C(=O)C2=C(O)CCCC2=O)c1=O [Compound 75]", "Plant response rating, Foxtail, Giant": 25}

Short answer please: Plant response rating, Foxtail, Giant, giant foxtail (Setaria faberii), entry Cc1cc(F)ccc1-n1c(-c2ccccc2)ncc(C(=O)C2=C(O)CCCC2=O)c1=O [Compound 48] 75

Short answer please: Plant response rating, Foxtail, Giant, giant foxtail (Setaria faberii), entry O=C1CCCC([O-])=C1C(=O)c1cnc(-c2ccccc2)n(-c2ccccc2)c1=O.[K+] [Compound 14] 10

Short answer please: Plant response rating, Foxtail, Giant, giant foxtail (Setaria faberii), entry CCCCn1c(C2CC2)ncc(C(=O)C2=C(O)CCCC2=O)c1=O [Compound 193] 65

Short answer please: Plant response rating, Foxtail, Giant, giant foxtail (Setaria faberii), entry Cc1cccc(-n2c(-c3cccc(Cl)c3)ncc(C(=O)C3=C(O)CCCC3=O)c2=O)c1 [Compound 45] 0

Short answer please: Plant response rating, Foxtail, Giant, giant foxtail (Setaria faberii), entry O=C1CCCC(O)=C1C(=O)c1cnc(-c2ccccc2)n(-c2ccc(F)cc2)c1=O [Compound 24] 85

---

Test system: guineagrass (Panicum maximum)
Protocol summary: Test D pre-/postemergence plant response
Assay type: in vivo
Experimental conditions: Postemergence, 31 g ai/ha; scale 0 to 100
// values below are reported Plant response rating, Guineagrass
The reply should be a number, written without any unit.

{"Compound": "CCCCn1c(-c2ccccc2)ncc(C(=O)C2=C(O)C3CCC(C3)C2=O)c1=O (stereo not shown)", "Observed measurement": 40}

Any idea what Plant response rating, Guineagrass was measured for O=C1CCCC(O)=C1C(=O)c1cnc(-c2cccs2)n(-c2ccccc2)c1=O ? 5

Any idea what Plant response rating, Guineagrass was measured for Cc1c(F)cccc1-n1c(-c2ccccc2)ncc(C(=O)C2=C(O)CCCC2=O)c1=O ? 20

Any idea what Plant response rating, Guineagrass was measured for O=C1CCCC(O)=C1C(=O)c1cnc(C2CC2)n(-c2ccccc2)c1=O ? 20

---

System: green foxtail (Setaria viridis)
Protocol summary: Test B pre-/postemergence plant response
Format: in vivo
Experimental conditions: Preemergence, 62 g ai/ha; scale 0 to 100, 0 no effect, 100 complete control
Classification scheme (Plant response rating, Foxtail, Green): 1 = under 30, 2 = from 30 up to 60, 3 = 60 and over

Which Plant response rating, Foxtail, Green band matches O=C1CCCC(O)=C1C(=O)c1cnc(-c2cccs2)n(-c2ccccc2)c1=O [Compound 66] ? 1

Which Plant response rating, Foxtail, Green band matches Cc1ccc(F)c(-n2c(-c3ccccc3)ncc(C(=O)C3=C(O)CCCC3=O)c2=O)c1 [Compound 51] ? 2

Which Plant response rating, Foxtail, Green band matches Cc1cccc(-n2c(-c3cccc(Cl)c3)ncc(C(=O)C3=C(O)CCCC3=O)c2=O)c1 [Compound 45] ? 3

Which Plant response rating, Foxtail, Green band matches CCCCc1ncc(C(=O)C2=C(O)CCCC2=O)c(=O)n1-c1ccccc1C [Compound 62] ? 1

---

Tested on: velvetleaf (Abutilon theophrasti)
Protocol summary: Test A pre-/postemergence plant response
Format: in vivo
Experimental conditions: Preemergence, 500 g ai/ha; 0 to 100 scale, 0 = no effect, 100 = complete control
Property: Plant response rating, Velvetleaf
The reply should be a number, written without any unit.

{"Compound": "CCCn1c(-c2cc(F)cc(F)c2)ncc(C(=O)C2=C(O)CC(C)(C)CC2=O)c1=O", "Property": "Plant response rating, Velvetleaf", "Observed measurement": 80}
{"Compound": "CCCn1c(-c2ccco2)ncc(C(=O)C2=C(O)C3CCC(C3)C2=O)c1=O (centres unmarked)", "Property": "Plant response rating, Velvetleaf", "Observed measurement": 80}
{"Compound": "O=C1CCCC(O)=C1C(=O)c1cnc(-c2ccccc2)n(C2CC[S+]([O-])CC2)c1=O (mixture of isomers)", "Property": "Plant response rating, Velvetleaf", "Observed measurement": 50}

Any idea what Plant response rating, Velvetleaf was measured for O=C(C1=C(O)C2CCC(C2)C1=O)c1cnc(-c2ccccc2)n(C2CCOCC2)c1=O (centres unmarked) ? 90

Any idea what Plant response rating, Velvetleaf was measured for CCCCn1c(-c2ccccc2)ncc(C(=O)C2=C(O)C3CCC(C3)C2=O)c1=O (centres unmarked) ? 80

Any idea what Plant response rating, Velvetleaf was measured for COc1ccc(-n2c(-c3cccc(Cl)c3)ncc(C(=O)C3=C(O)CCCC3=O)c2=O)cc1 ? 70

Any idea what Plant response rating, Velvetleaf was measured for CCc1ccc(-n2c(-c3cccc(C)c3)ncc(C(=O)C3=C(O)CCCC3=O)c2=O)cc1 ? 60

Any idea what Plant response rating, Velvetleaf was measured for COc1ccc(-n2c(-c3cccc(Br)c3)ncc(C(=O)C3=C(O)CCCC3=O)c2=O)cc1 ? 50
